tested on: human skin; assay: Transepidermal water loss (TEWL) of human skin in vitro, reversibility; settings: 24-h application of 1% enhancer (1% Azone, 5% SDS) in 60% PG; mean ± SEM
Marks after values point to notes of the source that are not given here.
Recorded measurements of TEWL 8 h after the sample had been removed, one per entry

Give the reported TEWL 8 h after the sample had been removed for CCCCCCCCCCCCOS(=O)(=O)[O-].[Na+] [SDS, sodium dodecyl sulfate, reference compound] (system: human skin).
38.7 ± 3.1* g/m^2/h

Give the reported TEWL 8 h after the sample had been removed for CCCCCCCCCCCCOC(=O)C1CCCN1C(=O)CC (centres unmarked) [Pro3] (system: human skin).
36.5 ± 1.1^+ g/m^2/h

Give the reported TEWL 8 h after the sample had been removed for CCCCCCCCCCCCOC(=O)C1CCCN1C(C)=O (centres unmarked) [Pro2, N-acetyl proline dodecyl ester] (system: human skin).
45.9 ± 1.5*^≠+ g/m^2/h

Give the reported TEWL 8 h after the sample had been removed for CCCCCCCCCCCCOC(=O)C1CCCN1C(=O)CCC (centres unmarked) [Pro4] (system: human skin).
30.5 ± 1.3^+ g/m^2/h

Give the reported TEWL 8 h after the sample had been removed for CCCCCCCCCCCCN1CCCCCC1=O [Azone, N-dodecylazepan-2-one, reference compound] (system: human skin).
51.9 ± 1.6*^≠+ g/m^2/h

* * *

tested on: human skin; assay: Transepidermal water loss (TEWL) of human skin in vitro, reversibility; settings: 24-h application of 1% enhancer (1% Azone, 5% SDS) in 60% PG; mean ± SEM
Marks after values point to notes of the source that are not given here.
parameter: TEWL 4 h after the sample had been removed

// below: answered compounds
compound | data-value
CCCCCCCCCCCCOC(=O)C1CCCN1C(C)=O (centres unmarked) [Pro2, N-acetyl proline dodecyl ester] | 56.0 ± 1.3*^≠ g/m^2/h
CCCCCCCCCCCCOS(=O)(=O)[O-].[Na+] [SDS, sodium dodecyl sulfate, reference compound] | 45.8 ± 4.4* g/m^2/h
CCCCCCCCCCCCOC(=O)C1CCCN1C(=O)CCC (centres unmarked) [Pro4] | 39.4 ± 2.5*^+ g/m^2/h
CCCCCCCCCCCCOC(=O)C1CCCN1C(=O)CC (centres unmarked) [Pro3] | 47.1 ± 1.7*^≠+ g/m^2/h

# context switch: different compound, same TEWL 4 h after the sample had been removed
Quick check: TEWL 4 h after the sample had been removed of CCCCCCCCCCCCN1CCCCCC1=O [Azone, N-dodecylazepan-2-one, reference compound] ?
60.7 ± 1.7*^≠ g/m^2/h

* * *

assay: Solubility of model drugs (donor sample, PBS); settings: pH 7.4
parameter: solubility (µg/mL)
Response body: numeric value in µg/mL, unit text excluded.

Quick check: solubility of Cn1c(=O)c2[nH]cnc2n(C)c1=O ?
7650

* * *

Recorded measurements of impedance before sample application (baseline), one per entry
tested on: human skin; assay: Electrical impedance of human skin in vitro, reversibility; details: before; mean ± SEM
Response body: numeric value in kΩ×cm^2, unit text excluded.

compound | assay-target | data-value
CCCCCCCCCCCCOC(=O)C1CCCN1C(C)=O (centres unmarked) | human skin | 25.2
CCCCCCCCCCCCOS(=O)(=O)[O-].[Na+] [SDS, sodium dodecyl sulfate, reference compound] | human skin | 26.7
CCCCCCCCCCCCOC(=O)C1CCCN1C(=O)CCC (centres unmarked) | human skin | 28.9
CCCCCCCCCCCCN1CCCCCC1=O [Azone, N-dodecylazepan-2-one, reference compound] | human skin | 25.1

# context switch: different compound, same impedance before sample application (baseline)
Give the reported impedance before sample application (baseline) for CCCCCCCCCCCCOC(=O)C1CCCN1C(=O)CC (centres unmarked) (system: human skin).
28.9
